Below, Ki values reported for Histamine H3 receptor (Rattus norvegicus) across several publications.
Readout Type: Ki (nM)

CCCCC(=O)N[C@H](C)C(=O)N1CCCN(CCCOc2ccc(-c3noc(CC4CCCC4)n3)c(F)c2)CC1 :: 1.4
C[C@@H](NC(=O)C1CCCCC1)C(=O)N1CCN(CCCOc2ccc(-c3noc(-c4ccccc4)n3)c(F)c2)CC1 :: 6.9
C[C@@H]1CCCN1CCc1ccc(-c2ccc(=O)n(-c3ccc(Cl)cc3)n2)cc1 :: 26
C[C@@H]1CCCN1CCCOc1ccc(C2=NN(Cc3ccccc3)C(=O)CC2)cc1 :: 25
C[C@@H]1CCCN1CCc1ccc(-c2ccc(S(=O)(=O)CCCO)cc2)cc1 :: 0.8
CN(C)CCCNc1c2c(nc3c1CCCC3)CCCCC2 :: 355
C[C@@H]1CCCN1CCCOc1ccc(-c2ccc(=O)[nH]n2)cc1C#N :: 111
C[C@@H]1CCCN1CCCOc1ccc2c(c1)CCc1cc(=O)[nH]nc1-2 :: 14
FC(F)(F)c1ccc(Cc2noc(CCc3c[nH]cn3)n2)cc1 :: 7.94
C[C@@H](N)C(=O)N1CCCN(CCCOc2ccc(-c3noc(C4CC4)n3)c(F)c2)CC1 :: 3

P = O=[N+]([O-])c1ccc(-c2cnc(SCCc3c[nH]cn3)[nH]2)cc1
Q = C[C@@H](NC(=O)c1ccco1)C(=O)N1CCCN(CCCOc2ccc(-c3noc(-c4ccsc4)n3)c(F)c2)CC1
When the recorded Ki values are compared, which is smaller: that of P or that of Q ? Kindly state the label of the option you pick.
Q
(Q: 2.6 nM, P: 52.5 nM)

1 = C[C@H]1CCCN1Cc1ccc(-c2ccc(CN3CCCCC3)cc2)cc1
2 = CS(=O)(=O)c1ccc(Cc2noc(CCc3c[nH]cn3)n2)cc1
3 = Cn1nc(-c2ccc(CCN3CCCC3)cc2)ccc1=O
4 = C[C@@H]1CCCN1CCCOc1ccc(-c2ccc(=O)n(CCF)n2)cc1
Give the ascending ranking of the items by reported Ki. Labels, requested order.
1, 4, 3, 2
(1: 0.372 nM, 4: 11 nM, 3: 135 nM, 2: 316 nM)

A = O=c1cc(-c2ccc(OCCCN3CCCCC3)cc2)cnn1-c1ccccn1
B = c1cc2c(cc1OCC1CCCO1)CCC1(CCN(C3CCC3)CC1)O2 (stereo unspecified)
C = CN(C)CCC#Cc1c2c(nc3ccccc13)CCCCC2
Give the ascending ranking of the items by reported Ki. Labels, requested order.
A, B, C

A = O=C(c1ccc(Oc2ccc(F)cc2)cn1)N1CCCN(C2CCC2)CC1
B = CC[C@@H](O)COc1ccc2c(c1)CCC1(CCN(C3CCC3)CC1)O2
Of A and B , which one carries the higher reported Ki? Kindly state the label of the option you pick.
B

---

pKi: −log10 of the molar value.
Below, pKi values reported for Histamine H3 receptor (Rattus norvegicus, UniProt Q9QYN8) across several publications.
Readout Type: pKi

Check out these entries, answers already filled in.
N#Cc1ccc(-c2ccc3c(c2)CCN(CCCN2CCCC2)C3=O)cc1 :: 6.57
N[C@H](Cc1ccc(-c2ccccc2)cc1)C(=O)N1CCN(CCCOc2ccc(C(=O)C3CC3)cc2)CC1 :: 6.88
O=C(c1ccc(Oc2ccc(Cl)cc2)nc1)N1CCCN(C2CCC2)CC1 :: 7.64
CCCCCC(=O)c1ccc(OCCCN2CCN(C(=O)[C@H](N)C(C)C)CC2)cc1 :: 7.77
C[C@@H]1CCCN1CCc1ccc(C2=CC[C@H]3CN(C(=O)C4CCCC4)C[C@@H]23)cc1 :: 9.40
CCCCCC(=O)c1ccc(OCCCN2CCN(C(=O)c3cccnc3)CC2)cc1 :: 7.69
CN[C@H](Cc1ccccc1)C(=O)N1CCN(CCCOc2ccc(C(=O)C3CC3)cc2)CC1 :: 7.36
CN(C)Cc1ccc(-c2ccc(CN(C)C)cc2)cc1 :: 8.18

I = O=S(=O)(c1ccccc1)N1C[C@@H]2CC=C(c3ccc(CCN4CCCC4)cc3)[C@@H]2C1
II = C[C@@H]1CCCN1CCCOc1ccc(-c2cccn(C)c2=O)cc1
Of I and II , which one carries the higher reported pKi? Kindly state the label of the option you pick.
I
(I: 7.77, II: 6.84)

---

Below, pKi values reported for Histamine H3 receptor (Rattus norvegicus) across several publications.
pKi: −log10 of the molar value.
Readout Type: pKi

I = C[C@@H]1CCCN1CCCOc1ccc(-c2ccc(=O)n(C)n2)cc1F
II = CCCCCC(=O)c1ccc(OCCCN2CCN(CC(C)C)CC2)cc1
Of I and II , which one carries the higher reported pKi? Kindly state the label of the option you pick.
II
(II: 8.03, I: 7.57)

A = CCN(CC)C(=O)c1ccc(-c2ccc(OCCCN3CC[C@H](N(C)C)C3)cc2)cc1
B = CC(C)N1CCN(C(=O)c2ccc(-c3ccc(=O)n(C)n3)cc2)CC1
Of A and B , which one carries the higher reported pKi? Kindly state the label of the option you pick.
A

a = CC(C)COC(=O)N1CCN(CC(=O)c2ccc(OCCCN3CCC[C@H]3C)cc2)CC1
b = C[C@@H]1CCCN1CCc1cc2cc(CNc3ccccc3[N+](=O)[O-])ccc2o1
c = CCCCCC(=O)c1ccc(OCCCN2CCN(C(=O)[C@@H](Cc3ccncc3)NC(=O)OC(C)(C)C)CC2)cc1
d = O=C1c2ccc(-c3ccccc3F)cc2CCN1CCN1CCCC1
Give the ascending ranking of the items by reported pKi. Labels, requested order.
d, c, a, b
(d: 6.76, c: 7.63, a: 7.92, b: 9.06)

---

Below, pKi values reported for Histamine H3 receptor (Rattus norvegicus, UniProt Q9QYN8) across several publications.
pKi: −log10 of the molar value.
Readout Type: pKi

Check out these entries, answers already filled in.
CCCC[C@H](c1ccc(-c2ccc(CN3CCCCC3)cc2)cc1)N1CCC[C@@H]1C :: 8.06
N#CC(C#N)=C1N(CCCN2CCCCC2)CCN1CCCN1CCCCC1 :: 8.59

a = CC(C)n1nc(-c2ccc(OCCCN3CCC[C@H]3C)cc2)c2sccc2c1=O
b = CC(C)CCC(=O)N[C@H](C)C(=O)N1CCCN(CCCOc2ccc(-c3noc(CC4CCCC4)n3)c(F)c2)CC1
c = O=c1cc(-c2ccc(OC3CCN(C4CCC4)CC3)nc2)cn[nH]1
Give the ascending ranking of the items by reported pKi. Labels, requested order.
c, a, b
(c: 7.70, a: 8.08, b: 8.55)

---

Below, pKi values reported for Histamine H3 receptor (Rattus norvegicus) across several publications.
pKi: −log10 of the molar value.
Readout Type: pKi

Check out these entries, answers already filled in.
CCOC(=O)N1CCN(CCCOc2ccc(C(=O)c3ccc(OC)cc3)cc2)CC1 :: 7.40
Cc1ccc(C#N)c(Nc2ccc3oc(CCN4CCC[C@H]4C)cc3c2)n1 :: 7.75
CC(C)C(=O)N1CCC(Oc2ccc3c(c2)CCC2(CCN(C4CCC4)CC2)O3)CC1 :: 8.22

I = CC(C)C(=O)N1C[C@@H]2CC=C(c3ccc(CCN4CCC[C@H]4C)cc3)[C@@H]2C1
II = CCCCCC(=O)c1ccc(OCCCN2CCN(S(=O)(=O)c3ccc(C#N)cc3)CC2)cc1
III = O=C(c1ccc(-c2ccc(=O)n(-c3ccc(F)cc3)n2)cc1)N1CCC[C@H]1CN1CCCC1
IV = C[C@@H]1CCCN1CCCOc1ccc(-c2nn(C)c(=O)c3c2CCCC3)cc1
Give the ascending ranking of the items by reported pKi. Labels, requested order.
III, II, IV, I

a = CC(=O)N[C@@H]1CC(=O)[C@@]2(C)CC[C@@H]3c4ccc(OCCCN5CCC[C@H]5C)cc4CC[C@H]3[C@H]12
b = C[C@H]1CC[C@H](C)N1CCCOc1ccc(-c2ccc(C(=O)N3CCCC3)cc2)cc1
When the recorded pKi values are compared, which is smaller: that of a or that of b ? Kindly state the label of the option you pick.
a

I = N[C@H](CC1CCCCC1)C(=O)N1CCN(CCCOc2ccc(C(=O)C3CC3)cc2)CC1
II = C[C@@H](NC(=O)c1ccccc1)C(=O)N1CCN(CCCOc2ccc(-c3noc(-c4ccccc4)n3)c(F)c2)CC1
III = O=c1ccc(-c2ccc(OC3CCN(C4CCC4)CC3)nc2)nn1-c1ccccn1
IV = N=C(N)N(CCCCN1CCN(CCCCCCCOc2ccccc2)CC1)Cc1ccc([N+](=O)[O-])cc1
Thanks in advance: please rank these 4 entries by pKi, highest to lowest. Labels, requested order.
II, IV, III, I
(II: 8.34, IV: 7.80, III: 7.09, I: 6.79)

---

Below, Ki values reported for Histamine H3 receptor (Rattus norvegicus, UniProt Q9QYN8) across several publications.
Readout Type: Ki (nM)

1 = C[C@@H]1CCCN1CCc1cc2cc(CNc3ccc([N+](=O)[O-])cc3)ccc2o1
2 = CC(C)n1nc(-c2ccc(OCCCN3CCCC3)cc2)c2sccc2c1=O
3 = C[C@@H]1CCCN1CCc1cc2cc(Nc3ccccc3[N+](=O)[O-])ccc2o1
Which order do these fall in by Ki? Give them lowest to highest. Labels, requested order.
3, 1, 2

I = O=c1cc(-c2ccc(OCCCN3CCCCCC3)cc2)cnn1-c1ccccn1
II = O=C(CN1CCOCC1)c1ccc(OCCCN2CCCCC2)cc1
Of I and II , which one carries the higher reported Ki? Kindly state the label of the option you pick.
II
(II: 440 nM, I: 12 nM)

I = NC(=O)c1cccc(-c2cnc(SCCc3c[nH]cn3)[nH]2)c1
II = CC1CCCN1C(=O)c1ccc(-c2ccc(OCCCN3CC[C@H](O)C3)cc2)cc1 (stereo partly specified)
Of I and II , which one carries the higher reported Ki? Kindly state the label of the option you pick.
II
(II: 25.7 nM, I: 16.2 nM)

a = O=S(=O)(Cc1ccccc1)N1C[C@@H]2CC=C(c3ccc(CCN4CCCC4)cc3)[C@@H]2C1
b = CC(=O)N1CCN(Cc2ccc(-c3ccc(CN4CCCCC4)cc3)cc2)CC1
Of a and b , which one carries the higher reported Ki? Kindly state the label of the option you pick.
b
(b: 46.8 nM, a: 12 nM)
